Data origin: patent US7842469B2

# ASSAY DETAILS: Luciferase activity of purified RLuc mutants (light output integrated over 10 s, luminometer)
# Type: biochemical
# EXPERIMENTAL SETUP: benzyl-coelenterazine; relative to native enzyme

- MOLECULE: "C124A/K136R: RLuc mutant C124A/K136R (protein) MASKVYDPEQRKRMITGPQWWARCKQMNVLDSFINYYDSEKHAENAVIFLHGNAASSYLWRHVVPHIEPVARCIIPDLIGMGKSGKSGNGSYRLLDHYKYLTAWFELLNLPKKIIFVGHDWGAALAFHYSYEHQDRIKAIVHAESVVDVIESWDEWPDIEEDIALIKSEEGEKMVLENNFFVETMLPSKIMRKLEPEEFAAYLEPFKEKGEVRRPTLSWPREIPLVKGGKPDVVQIVRNYNAYLRASDDLPKMFIESDPGFFSNAIVEGAKKFPNTEFVKVKGLHFSQEDAPDEMGKYIKSFVERVLKNEQ"
  Activity (relative to RLuc) bc: 2.1
